Would you kindly list CeTb % (inhibition of MDL binding) for each of these compounds?
biological target: CeTb, colchicine site (Gallus gallus); test: Single-point MDL competitive binding inhibition screen, erythrocyte tubulin; set-up: species or system chicken (Gallus gallus); conditions: 50 µM drug, 1 µM tubulin, 5 µM MDL, single point
Write the figure, then the unit, nothing else.

Take a look at these entries with their results.
COC(=O)Nc1nc2cc(C(=O)c3ccc(F)cc3)ccc2[nH]1; 61%
COc1ccc2cc3[n+](cc2c1OC)CCc1cc2c(cc1-3)OCO2; 2%

# next compound below
Input: Tell me its CeTb % (inhibition of MDL binding) given COC(=O)Nc1nc2ccc(Sc3ccccc3)cc2[nH]1 as the entry.
Output: 39%

====

target: CeTb, colchicine site (Gallus gallus, UniProt P09207); experiment: Single-point MDL competitive binding inhibition screen, erythrocyte tubulin; parameters: species or system chicken (Gallus gallus); conditions: 50 µM drug, 1 µM tubulin, 5 µM MDL, single point; read-out: CeTb % (inhibition of MDL binding)
Please go through the items and note down their inhibition at 50 µM.
Numbers only, in %.

COc1cc2c(c(OC)c1OC)-c1cc3c(cc1C(OC(C)=O)[C@H]1COC(=O)[C@@H]1C2)OCO3 (stereo partly shown) [Steganacin]; 50

Now take the following compound into account.
Input: Give recorded inhibition at 50 µM. COc1cc([C@@H]2c3cc4c(cc3[C@H](O)[C@H]3COC(=O)[C@H]23)OCO4)cc(OC)c1OC [Podophyllotoxin]
Output: 81

====

Provide the reported Kd of each item.
molecular target: CeTb, colchicine site (Gallus gallus); assay: Single-point MDL competitive binding inhibition screen, erythrocyte tubulin; set-up: species or system chicken (Gallus gallus); settings: from single-point data (50 µM drug) fitted with single-site isotherm, Eq. 4; read-out: CeTb Kd(app)
Answers are plain numbers, in µM.

Below, each entry is followed by its recorded Kd result.
COC(=O)Nc1nc2ccc(Sc3ccccc3)cc2[nH]1; 26
COc1cc2c(cc1O)CC[C@@H]1[C@@H]2CC[C@]2(C)[C@@H](O)CC[C@@H]12; 1870
COc1ccc2[nH]c(C(=O)c3ccccc3)cc2c1; 6.2
CC(C)=CCC/C(C)=C/CC/C(C)=C/Cc1c(O)c2ccccc2oc1=O; 872
c1ccc2[nH]c(-c3cscn3)nc2c1; 35
COc1ccc(-c2ccc(OC)c(=O)cc2)c(OC)c1OC; 565
COc1cc2c(c(OC)c1OC)-c1ccc(OC)c(=O)cc1CCC2; 28
CN(C)c1ccc(NS(=O)(=O)c2c(F)c(F)c(F)c(F)c2F)cc1; 872
CCCSc1ccc2nc(NC(=O)OC)[nH]c2c1; 31
CCCOc1ccc2nc(NC(=O)OC)[nH]c2c1; 13

I would be grateful if you could provide Kd for each of the following entries.
1. CCC[S+]([O-])c1ccc2[nH]c(NC(=O)OC)nc2c1 (stereo not shown)
2. COc1cc2c(c(OC)c1OC)-c1cc3c(cc1C(OC(C)=O)[C@H]1COC(=O)[C@@H]1C2)OCO3 (stereo partly shown)
3. COc1cc2c(c(OC)c1OC)-c1ccc(O)c(=O)cc1C(N)CC2 (stereo not shown)
4. CC(Nc1ccccc1)=C1C(=O)NC(Cc2ccccc2)C1=O (stereo not shown)
5. COc1ccc2cc3[n+](cc2c1OC)CCc1cc2c(cc1-3)OCO2
6. CCOC(=O)Nc1ccc(SC[C@@H]2CO[C@@](Cn3ccnc3)(c3ccc(Cl)cc3Cl)O2)cc1 [Tubulazole T]
7. C[C@H]1CCC/C=C/C(=O)c2c(O)cc(O)cc2CC(=O)O1 [Dehydrocurvularin]

Output:
1. 45
2. 17
3. 54
4. 32
5. 872
6. 124
7. 1870

====

target: Brain tubulin (BTb), colchicine site (Bos taurus, UniProt Q6B856); construct: from tissue; host or cells: mammalian brain: either rat brain (purified in house) or bovine brain (bought from Cytoskeleton #HTS02-A or Sigma-Aldrich #T4925); test: Competition titration with MDL (fluorescence), brain tubulin; assay type: binding, bovine or rat; conditions: Brain tubulin (BTb) Kd (Table 4, selected drugs)
Quantity kind: pKd
Answers are plain numbers, as −log10 of the molar value.

Input: Answer with reported pKd of COc1cc([C@@H]2c3cc4c(cc3[C@H](O)[C@H]3COC(=O)[C@H]23)OCO4)cc(OC)c1OC
Output: 6.43

====

Assign Kd to each entry below.
molecular target: CeTb, colchicine site (Gallus gallus, UniProt P09207); test: Single-point MDL competitive binding inhibition screen, erythrocyte tubulin; set-up: species or system chicken (Gallus gallus); conditions: from single-point data (50 µM drug) fitted with single-site isotherm, Eq. 4; read-out: CeTb Kd(app)
Give bare numbers, in µM.

CCOC(=O)Cc1cc(O)cc(O)c1C(C)=O; 872

List reported Kd for each of these molecules:
1. COc1ccc(/C=C\c2cc(OC)c3c(c2)OCO3)cc1O
2. COc1ccc(C=Cc2cc(OC)cc(OC)c2)cc1 [Trimethoxy resveratrol (trans), 3, 5, 4’-trimethoxystilbene]
3. COc1ccc(CCc2cc(OC)c(OC)c(OC)c2)cc1O [Dyhydro CS A4, dihydrocombretastatin-A4]

Output:
3.9
43
153

====

biological target: Rat brain tubulin (RBTb) (Rattus norvegicus)
Quantity kind: pKd
Numbers only, as −log10 of the molar value.

Input: Return pKd (reported value) for this compound: COc1ccc(OC)c(C(=O)/C(C)=C/c2ccc(N(C)C)cc2)c1
Output: 6.35

====

molecular target: BTb, colchicine site (Bos taurus); construct: from tissue; host or cells: mammalian brain: either rat brain (purified in house) or bovine brain (bought from Cytoskeleton #HTS02-A or Sigma-Aldrich #T4925); assay: Single-point MDL competitive binding inhibition screen, brain tubulin; set-up: species or system bovine or rat; details: from single-point data (50 µM drug) fitted with single-site isotherm, Eq. 4; read-out: BTb Kd(app)
Can you tell me pKd for the items I'm about to list?
One number for each entry, as −log10 of the molar value.

# annotated cases, reported pKd shown
COc1cc2c(cc1O)CC[C@@H]1[C@@H]2CC[C@]2(C)[C@@H](O)CC[C@@H]12 [2-methoxyestradiol (2-ME), 2-methoxyestradiol]; 4.48
CC(C)=CCC/C(C)=C/CC/C(C)=C/Cc1c(O)c2ccccc2oc1=O [Ferulenol]; 4.39

Dear reader, for each entry below, please note its pKd.
1. O=C1NC(=O)[C@@H](c2cn3c4c(cccc24)CCC3)[C@@H]1c1c[nH]c2ccccc12 [Tivantinib]
2. CCC[S+]([O-])c1ccc2[nH]c(NC(=O)OC)nc2c1 (centres unmarked) [Ricobendazole]
3. COc1ccc2cc3[n+](cc2c1OC)CCc1cc2c(cc1-3)OCO2 [Berberine]
4. COc1ccc(-c2ccc(OC)c(=O)cc2)c(OC)c1OC [AC (MTC)]

Output:
5.31
4.28
3.95
4.62

State recorded pKd for all listed compounds.
1. CCOC(=O)Cc1cc(O)cc(O)c1C(C)=O [Curvulin]
2. CCOC(=O)Nc1ccc(SC[C@@H]2CO[C@@](Cn3ccnc3)(c3ccc(Cl)cc3Cl)O2)cc1 [Tubulazole C]
3. COc1ccc(C=Cc2cc(OC)cc(OC)c2)cc1 [Trimethoxy resveratrol (trans), 3, 5, 4’-trimethoxystilbene]
4. c1ccc2[nH]c(-c3cscn3)nc2c1 [Thiabendazole]

Output:
1. 3.82
2. 5.00
3. 4.28
4. 4.14

I have 7 compounds here; please give me pKd for each one.
1. CC(Nc1ccccc1)=C1C(=O)NC(Cc2ccccc2)C1=O (centres unmarked) [TN16]
2. COC(=O)Nc1nc2ccc(C(=O)c3ccccc3)cc2[nH]1 [Mebendazole]
3. COc1ccc(CCc2cc(OC)c(OC)c(OC)c2)cc1O [Dyhydro CS A4, dihydrocombretastatin-A4]
4. C[C@H]1CCC/C=C/C(=O)c2c(O)cc(O)cc2CC(=O)O1 [Dehydrocurvularin]
5. COc1cc2c(c(OC)c1OC)-c1ccc(OC)c(=O)cc1CCC2 [Desacetamidocolchicine (DAAC), Desacetamidocolchicine]
6. COc1ccc(/C=C\c2cc(OC)c3c(c2)OCO3)cc1O [Combrestastatin (CS) A2]
7. CN(C)c1ccc(NS(=O)(=O)c2c(F)c(F)c(F)c(F)c2F)cc1 [T113242]

Output:
5.82
6.00
5.28
3.63
5.85
6.36
5.24

====

target: CeTb, colchicine site (Gallus gallus, UniProt P09207); assay: Single-point MDL competitive binding inhibition screen, erythrocyte tubulin; set-up: species or system chicken (Gallus gallus); conditions: read-out: CeTb Kd(app)
Quantity kind: Kd (µM)
Give bare numbers, in µM.

Input: Output measured Kd for this item: COc1cc([C@@H]2c3[nH]c4ccccc4c3C[C@H]3COC(=O)N32)cc(OC)c1O [Azatoxin]
Output: 416

====

molecular target: Brain tubulin (BTb), colchicine site (Bos taurus, UniProt Q6B856); construct: from tissue; host or cells: mammalian brain: either rat brain (purified in house) or bovine brain (bought from Cytoskeleton #HTS02-A or Sigma-Aldrich #T4925); assay: Competition titration with MDL (fluorescence), brain tubulin; format: binding, bovine or rat; settings: Brain tubulin (BTb) Kd
Quantity kind: pKd
One number for each entry, as −log10 of the molar value.

Input: Report pKd for COc1cc([C@@H]2c3cc4c(cc3[C@H](O)[C@H]3COC(=O)[C@H]23)OCO4)cc(OC)c1OC [Podophyllotoxin]
Output: 6.43
